tested on: PDL Fibroblasts; assay: SRB cytotoxicity on normal periodontal ligament fibroblasts, selective cytotoxicity; assay type: cell-based, Human; conditions: Homo sapiens, Fibroblast; normal fibroblasts, SRB, 72 h, mean ± SD, value in brackets
Entries whose IC50 is below 60 mg/L take criterion met; entries at or above 60 mg/L take criterion not met.

>>> class_label("O=C(O)c1cn(C2CC2)c2c([N+](=O)[O-])c(NC3CCCCC3)c(F)cc2c1=O [7a]")
"criterion met"
>>> class_label("COc1ccccc1-n1nnc2c3c(cc(F)c21)c(=O)c(C(=O)O)cn3C1CC1 [5a]")
"criterion not met"
>>> class_label("COc1cccc(-n2nnc3c4c(cc(F)c32)c(=O)c(C(=O)O)cn4C2CC2)c1 [5b]")
"criterion met"

Regarding COc1ccc(Nc2c(F)cc3c(=O)c(C(=O)O)cn(C4CC4)c3c2[N+](=O)[O-])cc1 [3c] , kindly confirm whether its IC50 is beneath 60 mg/L. criterion met

Regarding COc1ccccc1Nc1c(F)cc2c(=O)c(C(=O)O)cn(C3CC3)c2c1N [4a] , kindly confirm whether its IC50 is beneath 60 mg/L. criterion met

Regarding CCn1cc(C(=O)O)c(=O)c2cc(F)c(Nc3ccccc3OC)c([N+](=O)[O-])c21 [11a] , kindly confirm whether its IC50 is beneath 60 mg/L. criterion not met

Regarding Nc1c(NC2CCCCC2)c(F)cc2c(=O)c(C(=O)O)cn(C3CC3)c12 [8a] , kindly confirm whether its IC50 is beneath 60 mg/L. criterion met

Regarding COc1cccc(Nc2c(F)cc3c(=O)c(C(=O)O)cn(C4CC4)c3c2N)c1 [4b] , kindly confirm whether its IC50 is beneath 60 mg/L. criterion not met

Regarding CCn1cc(C(=O)O)c(=O)c2cc(F)c(Nc3cccc(OC)c3)c(N)c21 [12b] , kindly confirm whether its IC50 is beneath 60 mg/L. criterion met
